Tested on: blackgrass (Alopecurus myosuroides)
Experiment: Test A postemergence
Type: in vivo
Settings: 125 g ai/ha, postemergence; visual rating after approx. 10 d, 0 to 100 scale (0 no effect, 100 complete control)

# MOLECULE, Plant response rating, Blackgrass
measured = [
    ("C=CCOc1cccc(C2CNC(=O)C2(CC=C)C(=O)Nc2cccc(F)c2F)c1 (stereo not shown) [Compound 631]", 0),
    ("CN1CC(c2cc(F)cc(F)c2)C(C(=O)Nc2cccc3c2CCCC3)C1=O (stereo not shown) [Compound 660]", 0),
    ("C#CCN1CC(c2cccc(C(F)(F)F)c2)C(C(=O)Nc2ccccc2F)C1=O (stereo not shown) [Compound 607]", 0),
    ("CC(C)Oc1cccc(C2CNC(=O)C2C(=O)Nc2cccc(F)c2F)c1 (stereo not shown) [Compound 553]", 50),
    ("CN1CC(c2cc(F)cc(F)c2)C(C(=O)Nc2ccc(F)c(F)c2F)C1=O (stereo not shown) [Compound 646]", 70),
    ("CN1CC(c2ccc(F)c(C(F)(F)F)c2)C(C(=O)Nc2ccccc2F)C1=O (stereo not shown) [Compound 611]", 50),
    ("CCc1cc(C2CNC(=O)C2C(=O)Nc2cccc(F)c2F)cs1 (racemic) [Compound 658]", 40),
]
